# target-entity: angiotensin II (AII) contraction of rabbit aortic rings (Oryctolagus cuniculus)
# Construct: The thoracic aorta was removed, cleaned of adherent fat and connective tissue and then cut into 3-mm ring segments; from tissue; host or cells: rabbit thoracic aorta rings, endothelium removed
# Sequence (P34976 1-359): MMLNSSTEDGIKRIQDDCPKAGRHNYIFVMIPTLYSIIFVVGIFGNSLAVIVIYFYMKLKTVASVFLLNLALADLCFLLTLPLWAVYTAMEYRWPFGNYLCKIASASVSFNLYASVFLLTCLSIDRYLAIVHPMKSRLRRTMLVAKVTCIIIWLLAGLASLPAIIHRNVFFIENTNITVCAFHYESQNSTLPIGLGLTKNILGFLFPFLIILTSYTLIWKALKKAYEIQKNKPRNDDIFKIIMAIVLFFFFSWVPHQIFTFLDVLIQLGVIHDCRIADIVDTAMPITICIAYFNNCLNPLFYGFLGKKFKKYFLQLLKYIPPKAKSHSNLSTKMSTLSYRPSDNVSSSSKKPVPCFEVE
# assay-method-text: In vitro myotropic screening assay for AII antagonists in rabbit aortic rings
# Assay type: cell-based
# setup-conditions: pA2 determined according to Schild
endpoint-label: pA2

CCCCc1nc2cc(C(=O)O)c(=O)c(COC)cc2n1Cc1ccc(-c2ccccc2C(=O)O)cc1 [Example 12] :: 6.8
CCCc1nc2ccc(=O)c(Cc3ccccc3)cc2n1Cc1ccc(-c2ccccc2C(=O)O)cc1 [Example 13] :: 5.5
CCCCc1nc2cc(C(C)C)c(=O)c(-c3ccccc3)cc2n1Cc1ccc(-c2ccccc2C(=O)O)cc1 [Example 10] :: 5.6
CCCCc1nc2cc(O)c(=O)c(Cl)cc2n1Cc1ccc(-c2ccccc2C(=O)O)cc1 [Example 11] :: 6.4

Provenance of the data: patent US5104891A
